- STUDY SYSTEM: rhBCL-10 (recombinant human BCL-10) (Homo sapiens, UniProt O95999)
- Construct: recombinant human protein, amine-coupled on sensor chip for SPR
- Sequence (O95999 whole entry): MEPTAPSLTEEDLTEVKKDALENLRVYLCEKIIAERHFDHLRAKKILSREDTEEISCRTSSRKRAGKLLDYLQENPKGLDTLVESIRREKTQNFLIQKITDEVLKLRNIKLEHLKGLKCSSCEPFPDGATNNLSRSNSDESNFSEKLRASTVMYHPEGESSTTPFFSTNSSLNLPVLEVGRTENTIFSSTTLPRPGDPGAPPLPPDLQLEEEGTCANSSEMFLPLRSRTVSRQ
- METHOD SUMMARY: SPR (Biacore T200), global […] Langmuir kinetic fit
READOUT TYPE: Kd (µM)
Lab book: enter the figure in µM, no units written.

Which Kd reading was recorded for the compound Cc1cc(O)c2c(c1)C(=O)c1cc(O)cc(O)c1C2=O ?
1.94
